B1: 5KPH (parent)
chain: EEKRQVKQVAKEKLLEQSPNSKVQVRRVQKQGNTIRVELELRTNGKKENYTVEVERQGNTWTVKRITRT

variants of: B1; assay: folding stability dG (cDNA display proteolysis); higher = more stable; details: PBS, room temperature
As shown below, each of these variants has a reported folding stability dG value.
Don't forget the unit after the number, please.

// solved cases for folding stability dG follow
[
  {
    "RECORD_SEQUENCE": "EEKRQVKQVAKEKLLEQSPNSKVQVRRVQKQTNTIRVELELRTNGKKENYTVEVERQGNTWTVKRITRT",
    "folding stability dG": "2.6 kcal/mol"
  },
  {
    "RECORD_SEQUENCE": "EEKRQVKQVAKEKLLEQSPNSKVQVRRVQKQGNTIRVELELRTNGKKENYTVEVERQGNTWTVKRIERT",
    "folding stability dG": "3.64 kcal/mol"
  },
  {
    "RECORD_SEQUENCE": "EEKRQVKQVAKEKLLEQSPNSKVQVRRVQKQGNTIRVELELSTNGKKENYTVEVERQGNTWTVKRITRT",
    "folding stability dG": "3.91 kcal/mol"
  },
  {
    "RECORD_SEQUENCE": "EEKRQVKQVAKEKLLEQSPNSKVQVRRVQKQGNTNRVELELRTNGKKENYTVEVERQGNTWTVKRITRT",
    "folding stability dG": "2.81 kcal/mol"
  },
  {
    "RECORD_SEQUENCE": "EEKRQVKQVAKEKLLEQSPNSKVQVRRVQKQGNTIRVELELRTNGKKERYTVEVERQGNTWTVKRITRT",
    "folding stability dG": "4.09 kcal/mol"
  },
  {
    "RECORD_SEQUENCE": "EEKRQVKQVAKEKLLEQSPNSKVQVRRVQKQGNTIRVELELRTNGKKENVTVEVERQGNTWTVKRITRT",
    "folding stability dG": "3.56 kcal/mol"
  }
]

Measured folding stability dG, EEKRQVKQVAKEKFLEQSPNSKVQVRRVQKQGNTIRVELELRTNGKKENYTVEVERQGNTWTVKRITRT : 2.92 kcal/mol
